- Tested on: NCI-H522 lung
- PROTOCOL_TEXT: NCI-60 one-dose screen, 48 h (100 = growth as untreated, 0 = no growth, -100 = all killed)
- TEST_CONTEXT: 10 µM
The panel holds about 83,000 compounds, 20% with a hit somewhere; the sample as a whole holds those more often.
For each record, check the reported growth: if it is below 40% write satisfied, else write not satisfied.

API: query returns whether the molecule falls strictly under 40% in growth. Query: Cc1cc(C)c(C[N+](C)(C)C)c(C)c1C
satisfied

====

Task for the reader: assign each of the following compounds its reported growth.
- Tested on: SF-268 CNS
- PROTOCOL_TEXT: NCI-60 one-dose screen, 48 h (100 = growth as untreated, 0 = no growth, -100 = all killed)
- TEST_CONTEXT: 10 µM
- Protocol: Cells are grown in 96 well plates and exposed to the test compound for 48 hours. Compounds are tested at a single concentration, which is 10^-5 M for most compounds. The reported endpoint is percent growth (GI% or GIPRCNT), where numbers from 0 - 100% represent growth inhibition, and numbers from -100% - 0 represent cell death. For example, a value of 40 represents 60% growth inhibition. A value of 0 means no net growth occurred over the course of the experiment. […]
Compounds without any hit were thinned out: in the full panel of roughly 83,000, 20% have a hit.
Give bare numbers, in %.

Would you please look over these solved cases?
Data request, read-out growth, for CC(C)C1(NC(=O)C2CC3c4cccc5[nH]cc(c45)CC3N(C)C2)OC2(O)C3CCCN3C(=O)C(Cc3ccccc3)N2C1=O (configuration not stated)
93.1

Now try COc1cc([C@@H]2c3cc4c(c(O)c3C[C@H]3COC(=O)[C@@H]32)OCO4)cc(OC)c1OC .
21.5

Same again, this time with CC[C@@H](C)[C@@H]1NC(=O)C(NC(=O)C(CC(C)C)N(C)C(=O)C2CCCN2C(=O)C(C)O)C(C)OC(=O)C(Cc2ccc(OC)cc2)N(C)C(=O)C2CCCN2C(=O)C(CC(C)C)NC(=O)C(C)C(=O)C(C(C)C)OC(=O)C[C@H]1O (some centres not stated)
-49.4

Could I get growth for every one of these entries?
1. CC(=O)Nc1c2sscc-2n(C)c1=O
2. O=C(O)c1cc(Cc2ccc(O)c(C(=O)O)c2)ccc1O (tested in a mixture with another compound)
3. O=[N+]([O-])/C=C/c1ccc(Cl)cc1[N+](=O)[O-]
4. [Cl][Hg][c]1ccc(Cl)s1
5. O=C(CBr)Nc1ccc(Cl)cc1

1. -80.4
2. 76.9
3. 59.1
4. 25.2
5. 88.9

====

- Tested on: UO-31 renal
- PROTOCOL_TEXT: NCI-60 one-dose screen, 48 h (100 = growth as untreated, 0 = no growth, -100 = all killed)
- TEST_CONTEXT: 10 µM
- Method: Growth inhibition of the UO-31 human tumor cell line is measured as a screen for anti-cancer activity. Cells are grown in 96 well plates and exposed to the test compound for 48 hours. Compounds are tested at a single concentration, which is 10^-5 M for most compounds. The reported endpoint is percent growth (GI% or GIPRCNT), where numbers from 0 - 100% represent growth inhibition, and numbers from -100% - 0 represent cell death. For example, a value of 40 represents 60% growth inhibition. […]
Compounds without any hit were thinned out: in the full panel of roughly 83,000, 20% have a hit.
Classify: Condition met when growth is strictly less than 40%; Condition not met when growth is not.

Please review the entries below; each comes with its answer.
# strict comparison: is reported growth < 40%? input = CC(C)c1cc([N+](=O)[O-])cc([N+](=O)[O-])c1O
Condition not met

Same for Cc1cc(C(C)(C)c2ccc(O)c(C)c2)ccc1O
Condition not met

For CCCCCCCC[N+]12CN3CN(CN(C3)C1)C2 then?
Condition not met

Could you do the same for CN(CCCl)c1ccc(/C=C/C2=[N+](C)c3ccccc3C2(C)C)cc1 , please?
Condition not met

Let us now turn to COC12C(COC(N)=O)C3=C(C(=O)C(C)=C(N)C3=O)N1CC1C2N1C (stereo not given)
Condition met

Now this one: CC(C)(C)OOC(=O)/C=C\C(=O)OOC(C)(C)C
Condition not met

Can you handle CC1CCC2(OC1)OC1C(O)C3C4CCC5CC(OC6OC(CO)C(OC7OC(CO)C(O)C(OC8OCC(O)C(O)C8O)C7OC7OC(CO)C(O)C(OC8OC(CO)C(O)C(O)C8O)C7O)C(O)C6O)C(O)CC5(C)C4CCC3(C)C1C2C (stereo not given) next?
Condition met

Same thing, different compound: COc1ccccc1/C=C/[N+](=O)[O-]
Condition not met

We now examine a further compound.
Criterion: growth strictly below 40%. Is it met by CC[C@@]1(O)C[C@H](OC2CC(N(C)C)C(O)C(C)O2)c2c(cc3c(c2O)C(=O)c2c(O)ccc(O)c2C3=O)[C@H]1C(=O)OC (stereo not given in full) ?
Condition met

====

- Tested on: OVCAR-3 ovarian
- PROTOCOL_TEXT: NCI-60 one-dose screen, 48 h
- TEST_CONTEXT: 10 µM
The panel holds about 83,000 compounds, 20% with a hit somewhere; the sample as a whole holds those more often. Activity calls are given as the source filed them. Rule for the calls: active = growth percent below 10; inactive = the rest.
Select the correct class. Options are Yes = active, No = inactive and nothing else.

The examples below pair each entry with its known result.
What classification did C[C@]12CC[C@H]3[C@@H](CCC4=CC(=O)CC[C@@H]43)[C@@H]1CC[C@@H]2OC(=O)N(CCCl)N=O end up with in this test?
No

Please answer likewise for CC12OOC(c3ccccc31)c1c2ccc2ccccc12 (stereo not given)
Yes

Same question for CC(=O)[O][Hg][c]1c(C)c(C)cc(C)c1C please.
Yes

// query: CCOP(=O)(OCC)/C(C#N)=C/c1ccc(Br)cc1
No

And what about the molecule O=C(O)c1cc(Cc2ccc(O)c(C(=O)O)c2)ccc1O (tested in a mixture with another compound) ?
No

Next up: COc1ccc2c(ccc3oc([N+](=O)[O-])cc32)c1
Yes

Also check NC(=O)c1cc([N+](=O)[O-])c(Cl)c([N+](=O)[O-])c1
Yes

Let us now turn to COc1ccccc1[As]=[As]c1ccccc1OC (stereo not given)
Yes

Next:
What was the test verdict on O=C1C(=O)c2ccccc2-c2ccccc21 ?
Yes

Similarly, COS(=O)(=O)c1ccccc1 ?
No

// query: O=C1C=Cc2ccccc2C1=O
No

Same thing, different molecule: Cc1cc(C(C)(C)c2ccc(O)c(C)c2)ccc1O
No

====

- System: HT29 colon
- PROTOCOL_TEXT: NCI-60 one-dose screen, 48 h
- TEST_CONTEXT: 10 µM
Compounds without any hit were thinned out: in the full panel of roughly 83,000, 20% have a hit. Active and inactive are the calls of the source. Rule for the calls: active = growth percent below 10; inactive = the rest.
Parameter call: string, one of active, inactive

Look over these answered cases.
For CC(C)C1(NC(=O)C2CC3c4cccc5[nH]cc(c45)CC3N(C)C2)OC2(O)C3CCCN3C(=O)C(Cc3ccccc3)N2C1=O (stereo not given) , which call appears in the assay record?
inactive

Now try CC12OOC(c3ccccc31)c1c2ccc2ccccc12 (stereo not given) .
active

Ok, now O=C1C(=O)c2ccccc2-c2ccccc21
active

Then what about the molecule O=C(O)c1cc(Cc2ccc(O)c(C(=O)O)c2)ccc1O (tested in a mixture with another compound) ?
inactive

Likewise for NC(=O)c1cc([N+](=O)[O-])c(Cl)c([N+](=O)[O-])c1Cl ?
active

Next:
Recorded test call requested for CC/C(=C/c1ccc(OC)cc1OC)[N+](=O)[O-]
active

====

- Test system: SF-539 CNS
- PROTOCOL_TEXT: NCI-60 one-dose screen, 48 h
- TEST_CONTEXT: 10 µM
Compounds without any hit were thinned out: in the full panel of roughly 83,000, 20% have a hit. The source made the active and inactive calls. Rule for the calls: active = growth percent below 10; inactive = the rest.
Choose the fitting class; nothing outside yes (active), no (inactive) is accepted.

Illustrative cases are given below, each with its answer.
For CCOP(=O)(OCC)/C(C#N)=C/c1ccc(Br)cc1 , what call appears in the results of this test?
no

Likewise for O=C(CBr)Nc1ccccc1 ?
no

// repeat for COC1CC2C=C(C)/C=C/C=C/C(=O)NC(c3ccccc3)C/C=C/CCC(O)CC(=O)C2=C1O (stereo not drawn) and report
yes

Next:
What was the test verdict on O=C1C=Cc2ccccc2C1=O ?
no

Can you handle O=C1C(=O)c2ccccc2-c2ccccc21 next?
yes

Next compound up: COc1ccccc1/C=C/[N+](=O)[O-]
no

What do you get for CC(=O)Nc1c2sscc-2n(C)c1=O ?
yes

Moving on to the next compound: O=[N+]([O-])c1ccc(Br)c([N+](=O)[O-])c1
no

Follow-up entry: C[C@]12CC[C@H]3[C@@H](CCC4=CC(=O)CC[C@@H]43)[C@@H]1CC[C@@H]2OC(=O)N(CCCl)N=O
yes

Consider next the compound COS(=O)(=O)c1ccccc1 in the same way.
no

Next entry: COC12C(COC(N)=O)C3=C(C(=O)C(C)=C(N)C3=O)N1CC1C2N1C (stereo not drawn)
no

Now give it for COc1ccc2c(ccc3oc([N+](=O)[O-])cc32)c1 too.
yes

Continue with COc1cc([N+](=O)[O-])c2ncccc2c1[N+](=O)[O-]
no

Next record, please: CC(C)(C)OOC(=O)/C=C\C(=O)OOC(C)(C)C
no

Can you check CN(CCCl)c1ccc(/C=C/C2=[N+](C)c3ccccc3C2(C)C)cc1 next?
no

Further, for NNc1ccccc1 ?
no

Same question for O=[N+]([O-])c1ccc(N(CCO)CCO)c2c1no[n+]2[O-] please.
yes

Same lookup for Oc1ccccc1-c1ccccc1 , please.
no

Also, COc1cc(/C=C/[N+](=O)[O-])cc(OC)c1OC please.
yes

Also CC(=O)[O][Hg][c]1c(C)c(C)cc(C)c1C , if possible.
no

Entry to check: N#CCc1ccccc1
no

Entry to check: CC[C@@]1(O)C[C@H](OC2CC(N(C)C)C(O)C(C)O2)c2c(cc3c(c2O)C(=O)c2c(O)ccc(O)c2C3=O)[C@H]1C(=O)OC (stereo partly drawn)
yes

Please answer likewise for C#CC1(O)CCC(C(C)(C)C)CC1 (stereo not drawn)
no

Now this one: COc1cc2c(c(OC)c1OC)-c1ccc(O)c(=O)cc1[C@@H](NC(C)=O)CC2
no

Same read-out for Oc1c(Cl)cc(Cl)c2ccccc12.[Cu+2] ?
no
